These measurements were taken from BindingDB's records for doi:10.7270/Q2TB15DB.

- TESTED TARGET: Endoribonuclease toxin MazF (Escherichia coli (strain K12), UniProt P0AE70)
- Sequence (P0AE70 whole entry): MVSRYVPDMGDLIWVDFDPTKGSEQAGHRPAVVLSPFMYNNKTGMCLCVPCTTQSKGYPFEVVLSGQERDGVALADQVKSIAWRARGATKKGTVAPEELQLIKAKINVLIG
- MEASUREMENT PROTOCOL: substrate-only fluorescence increase artefacts – biochemical, single-stranded RNase substrate, counter-screen for MazEF activator project, dose response (AID 588502)
MEASURED QUANTITY: pEC50
In simple prose, pEC50 is minus the logarithm base ten of a concentration in moles per litre.

Examples with answers:
[
  {
    "MOLECULE": "N#Cc1ccc(-n2c(O)c3[nH][nH]c(C(=O)c4ccc5ccccc5n4)c-3c2=O)cc1",
    "pEC50": 6.57
  },
  {
    "MOLECULE": "Cc1ccc(N/N=C2/C(=O)Nc3ccc(F)cc32)cc1",
    "pEC50": 4.52
  },
  {
    "MOLECULE": "Cc1nnc(N2C(=O)C(=O)C(C(=O)c3ccco3)C2c2ccc(C(C)(C)C)cc2)s1 (stereo not given)",
    "pEC50": 4.71
  }
]

Alright, here's another molecule for you.
**Q:** Return reported pEC50. Input molecule: `Cc1ccc(NN=C2C(=O)N(CN3CCOCC3)c3ccccc32)cc1`
**A:** 4.30
